Target: KRas G12D/Q61H double mutant (Homo sapiens (Human), UniProt P01116, G12D/Q61H)
Sequence (P01116-2 other isoform, or with tags, fused parts or gaps G12D/Q61H): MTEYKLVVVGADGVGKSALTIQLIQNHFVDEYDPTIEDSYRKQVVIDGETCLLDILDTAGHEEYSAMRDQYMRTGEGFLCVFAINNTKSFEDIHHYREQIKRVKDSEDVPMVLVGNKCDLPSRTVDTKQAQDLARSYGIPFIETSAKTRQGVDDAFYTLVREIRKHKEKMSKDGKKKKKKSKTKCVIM
Assay: Ras GTP binding domain inhibition assay (labeled GTP)
Conditions: at 20 μM; read-out: KRas G12D Q61H % Inh.
Give measured inhibition at 20 µM for each item. Keep answers brief.

## Task Look up inhibition at 20 µM for this compound: OCC1(c2ccc(-c3nc(-c4ccccn4)nc(-c4ccc(C5(CO)CC5)cc4)c3Oc3ccccc3)cc2)CC1 [drawing 3850]
## Result 1 to 25%

## Task For the compound COCC(C)Nc1nc(-c2ccccn2)nc(C(=O)NCCCc2c[nH]cn2)c1Oc1ccccc1 (stereo not shown) [drawing 3868] , what inhibition at 20 µM is on record?
## Result 1 to 25%

## Task Given Nc1nc(O)c2sc(-c3cccc(C(=O)NCc4cccc(O)n4)c3)cc2n1 [drawing 3864] , state its recorded inhibition at 20 µM.
## Result 0%

## Task Tell me the measured inhibition at 20 µM of Oc1nc(-c2ccccn2)nc2c(CC3CNC3)csc12 [drawing 3837] , please.
## Result 25 to 50%

## Task Entry under review: COc1cnc(C2CCCN2)nc1O (stereo not shown) [drawing 3788] . Reported inhibition at 20 µM?
## Result 0%

## Task Can you share its inhibition at 20 µM? I mean this compound: O=C(COCc1ccnc(O)c1)Nc1nc(-c2ccccn2)nc2sccc12 [drawing 3729]
## Result 51 to 75%

## Task Look up inhibition at 20 µM for this compound: Cc1c(C(=O)O)sc2c(O)nc(-c3ccccn3)nc12 [drawing 3794]
## Result 51 to 75%

## Task Which inhibition at 20 µM is listed for COc1ccc(CCN(C)C(=O)c2csc3nc(-c4ccccn4)nc(N4CCOCC4)c23)cn1 [drawing 3635] ?
## Result 0%

## Task Param item = COc1ccc(-c2csc3c(O)nc(-c4ccccn4)nc23)c(C)c1 [drawing 3753] ; retrieve measured inhibition at 20 µM.
## Result 51 to 75%

## Task What value of inhibition at 20 µM has been reported for the following compound? COC(=O)c1c(C)sc2c(N)nc(-c3ccccn3)nc12 [drawing 3818]
## Result 51 to 75%

## Task Item under review: COc1cnc(-c2nccn2C)nc1O [drawing 3831] . Reported inhibition at 20 µM?
## Result 76 to 100%

## Task Look up inhibition at 20 µM: Oc1nc(-c2ccccn2)nc2c(-c3ccc(CN4CCOCC4)cc3)csc12 [drawing 3754]
## Result 25 to 50%

## Task Quick check: inhibition at 20 µM of O=C(c1csc2c(O)nc(-c3ccccn3)nc12)N1CCC(c2ccncc2)C1 (stereo not shown) [drawing 3711] ?
## Result 51 to 75%

## Task Entry Oc1nc(-c2ccccn2)nc2c3c(sc12)CNC3 [drawing 3796] : reported inhibition at 20 µM = ?
## Result 51 to 75%

## Task Item Oc1nc(-c2ccccn2)nc2c(-c3ccc(F)cc3F)csc12 [drawing 3743] has what recorded inhibition at 20 µM?
## Result 51 to 75%

## Task Report inhibition at 20 µM for COc1cc(CCNC(=O)c2csc3nc(-c4ccccn4)nc(N4CCOCC4)c23)ccn1 [drawing 3636] please.
## Result 1 to 25%

## Task Dear colleague, I am looking for the recorded inhibition at 20 µM of the following compound: CC(C)Cc1csc2c(O)nc(-c3ccccn3)nc12 [drawing 3813]
## Result 51 to 75%

## Task Using the record for Oc1cccc(-c2csc3c(O)nc(-c4ccccn4)nc23)n1 [drawing 3817] , report its inhibition at 20 µM.
## Result 51 to 75%

## Task Would you mind telling me what inhibition at 20 µM value was observed for CC(C)Oc1cnc(-c2ccccn2)nc1O [drawing 3800] ?
## Result 51 to 75%

* * *

Biological target: Rho-A (Homo sapiens (Human), UniProt P61586)
Sequence (P61586 whole entry): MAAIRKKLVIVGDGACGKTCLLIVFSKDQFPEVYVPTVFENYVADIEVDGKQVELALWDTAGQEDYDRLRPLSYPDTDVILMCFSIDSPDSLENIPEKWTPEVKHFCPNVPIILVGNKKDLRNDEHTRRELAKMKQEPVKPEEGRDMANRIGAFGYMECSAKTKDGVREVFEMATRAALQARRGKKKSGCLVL
Test: Rho inhibition assay (labeled GTP)
Assay type: binding
Details: read-out: Rho-A % Inh.
Measurement type: inhibition at 20 µM

## Task inhibition at 20 µM lookup needed for Oc1nc(-c2ccccn2)nc2sc3c(c12)CCNC3 [drawing 3723] , thanks.
## Result 76 to 100%

## Task Requested read-out: inhibition at 20 µM. Entry: O=C(c1csc2c(O)nc(-c3ccccn3)nc12)N1CCNC(c2ccccc2F)C1 (stereo not shown) [drawing 3665]
## Result 76 to 100%

## Task Which inhibition at 20 µM value is on record for O=C(c1csc2c(O)nc(-c3ccccn3)nc12)N1CCOC(CN2CCOCC2)C1 (stereo not shown) [drawing 3694] ?
## Result 51 to 75%

## Task Request the reported inhibition at 20 µM associated with Oc1nc(-c2ccccn2)nc2c(-c3ccc4c(c3)OCO4)csc12 [drawing 3751]
## Result 51 to 75%

## Task Form field: reported inhibition at 20 µM of Nc1nc(-c2ccccn2)nc2ccsc12 [drawing 3706]
## Result 76 to 100%

## Task I have this compound here, O=C(c1csc2c(O)nc(-c3ccccn3)nc12)N1CCN(c2cccc(F)c2)CC1 [drawing 3642] , and I need its recorded inhibition at 20 µM.
## Result 76 to 100%

## Task Reported inhibition at 20 µM for COCCNc1nc(-c2cn(C)cn2)nc2sc(-c3ccccc3)c(-c3ccccc3)c12 [drawing 3901] : what is it?
## Result 51 to 75%

## Task I'd like to know its inhibition at 20 µM. The compound in question is COc1ccc(F)cc1-c1csc2c(O)nc(-c3ccccn3)nc12 [drawing 3746]
## Result 51 to 75%

## Task Item under review: COc1nc(-c2ccccn2)nc2c(C3CCCCC3)csc12 [drawing 3798] . Reported inhibition at 20 µM?
## Result 1 to 25%

## Task Need inhibition at 20 µM, item COc1cnc(C2(N)CCCC2)nc1O [drawing 3809]
## Result 1 to 25%

## Task What measured inhibition at 20 µM goes with COc1ccccc1-c1csc2c(O)nc(-c3ccccn3)nc12 [drawing 3742] ?
## Result 51 to 75%

## Task Any idea what its inhibition at 20 µM is? The compound is COc1cnc(-c2cn(C)cn2)nc1O [drawing 3815]
## Result 76 to 100%

## Task inhibition at 20 µM for COc1ccncc1CCNC(=O)c1csc2nc(-c3ccccn3)nc(N3CCOCC3)c12 [drawing 3669] ?
## Result 25 to 50%

## Task I'd like to know its inhibition at 20 µM. The compound in question is Oc1nc(-c2ccccn2)nc2c(-c3cccc4c3OCO4)csc12 [drawing 3721]
## Result 51 to 75%

## Task # lookup: inhibition at 20 µM of CC(C)Oc1ccc(-c2csc3c(O)nc(-c4nccn4C)nc23)cc1F [drawing 3927]
## Result 25 to 50%

## Task Please look up its inhibition at 20 µM: COc1cnc(CNC(=O)c2csc3c(O)nc(-c4ccccn4)nc23)[nH]c1=O [drawing 3838]
## Result 1 to 25%

## Task For the compound COC(=O)c1c(C)sc2c(N)nc(-c3ccccn3)nc12 [drawing 3818] , what inhibition at 20 µM is on record?
## Result 76 to 100%

## Task Entry O=S1(=O)CCN(Cc2cccc(-c3csc4c(O)nc(-c5ccccn5)nc34)c2)CC1 [drawing 3736] has what inhibition at 20 µM?
## Result 76 to 100%

## Task Requested field: inhibition at 20 µM. Item: CCOCCNc1nc(-c2nccn2C)nc2sc(-c3ccccc3)c(-c3ccccc3)c12 [drawing 3893]
## Result 51 to 75%

* * *

Molecular target: KRas G12D/Q61H double mutant (Homo sapiens (Human), UniProt P01116, G12D/Q61H)
Assay: Ras GTP binding domain inhibition assay (labeled GTP)
Conditions: 20 μM compound; read-out: % Inhibition at 20 μM KRas G12D Q61H
Description: Buffer-I: • 50 mM Tris, pH 7.5 • 150 mM NaCl (optional) • 1 mM MgCl2 • 1 mM DTT. • KRas G12D mutant protein was expressed as a His-tagged protein. […] Then 22 μl of Cy3-GTP or Cy5-GTP was added to each well. The labeled GTP was incubated for 45 min. at room temperature. • Following GTP incubation, wells were washed 3× in Buffer-I, and 200 μl of Buffer-I were added to each well. • Following washes, the amount of bound labeled-GTP was measured with an Eppendorf AF2200 plate reader. […]
Measurement type: inhibition at 20 µM

## Task Which inhibition at 20 µM is listed for O=C(c1csc2c(O)nc(-c3ccccn3)nc12)N1CCN(c2ccc(F)cc2)CC1 [drawing 2754] ?
## Result 0%

## Task Given Cc1ccc(-c2cc(C(=O)N(C3CC3)C(C)c3ccco3)on2)cc1 (stereo not shown) , state its recorded inhibition at 20 µM.
## Result 25 to 50%

## Task May I ask what inhibition at 20 µM has been recorded for Cc1cc(C(C)C)ccc1OCC(=O)N1N=CCC1(O)C(F)(F)F (stereo not shown) ?
## Result 25 to 50%

## Task For CC(C)CCS(=O)(=O)CC(=O)Nc1nnc(-c2ccccn2)[nH]1 , what is its reported inhibition at 20 µM?
## Result 25 to 50%

## Task Return reported inhibition at 20 µM; argument: CC(c1ccc(Cl)cc1Cl)N(C)Cc1nnc(-c2ccccc2)o1 (stereo not shown)
## Result 25 to 50%

## Task Return reported inhibition at 20 µM; argument: Oc1nc(-c2ccccn2)nc2c(-c3ccccc3)csc12 [drawing 2694]
## Result 25 to 50%

## Task Query: inhibition at 20 µM; subject: CC(C)(C(=O)Nc1nc(-c2ccccn2)nc2sccc12)c1ccc(C#N)cc1 [drawing 2752]
## Result 0%

## Task Look up inhibition at 20 µM for this compound: Cn1c(CNCc2ccccc2OCc2ccccc2)nc2ccccc21
## Result 25 to 50%

## Task Field request: inhibition at 20 µM | item: Oc1nc(-c2ccccn2)nc2c1ncn2-c1ccccc1 [drawing 2697]
## Result 51 to 75%

## Task I would be grateful if you could share the reported inhibition at 20 µM for COc1cc2c(cc1OC)CCN(C(=O)c1csc3c(O)nc(N)nc13)CC2 [drawing 2672] .
## Result 25 to 50%
